Data provenance: patent US12459908B2

# System: cryo-preserved hepatocytes
# assay comment: Hepatocyte stability assay, mouse cryopreserved hepatocytes
# Format: in vitro ADME
# test settings: Mouse hepatocytes, 10 μM, 60 min; class symbols
metric name: Clint

Known results for compounds:
compound: C=C(Cc1nc(C2(c3ccc(C(F)(F)F)cc3)CC2)no1)C(=O)O[C@@H](CC(=O)O)C(F)(F)F
Clint: + (+ means ≥351)
--
compound: C=C(Cc1nc(Cc2ccc(CCCC)cc2)no1)C(=O)O[C@@H](CC(=O)O)C(F)(F)F
Clint: + (+ means ≥351)
--
compound: C=C(Cc1nc(Cc2ccc(CCCC)cc2)no1)C(=O)OCCC(=O)O
Clint: + (+ means ≥351)
--
compound: C=C(Cc1nc(CCCCCCCC)no1)C(=O)OCCC(=O)O
Clint: + (+ means ≥351)

I am curious: what Clint value has been reported for "C=C(Cc1nc(C2(c3ccc(C(F)(F)F)cc3)CC2)no1)C(=O)OCC(=O)O" ?
++ (++ means 95-350)

Ok, now "C=C(Cc1nc(C2(c3ccc(C(F)(F)F)cc3)CC2)no1)C(=O)O[C@H](CC(=O)O)C(F)(F)F"
+ (+ means ≥351)

Ok, now "C=C(Cc1nc(CCCCCCCC)no1)C(=O)OCC(=O)O"
+ (+ means ≥351)

Ok, now "C=C(Cc1nc(C2(c3ccc(SC(F)(F)F)cc3)CC2)no1)C(=O)OCC(=O)O"
+ (+ means ≥351)

Ok, now "C=C(Cc1nc(Cc2ccc(CCCC)cc2)no1)C(=O)OCCc1nnn[nH]1"
+ (+ means ≥351)

Ok, now C=C(Cc1nc(CCCCCCCC)no1)C(=O)OC(C(F)(F)F)C(C)(C)C(=O)O (stereo not drawn)
+ (+ means ≥351)

Ok, now "C=C(Cc1nc(CCCCCCCC)no1)C(=O)O[C@H](CC(=O)O)C(F)(F)F"
+ (+ means ≥351)

Ok, now "C=C(Cc1nc(Cc2ccc(CCCC)cc2)no1)C(=O)OCc1nnn[nH]1"
+ (+ means ≥351)

====

# assay comment: Hepatocyte stability assay, human cryopreserved hepatocytes
# Format: in vitro ADME
# test settings: cryopreserved hepatocytes; Human hepatocytes, 10 μM, 60 min; numeric values; read-out: T½
metric name: half-life at 10 μM (min)
# number only, unit min dropped from output

I am curious: what half-life at 10 μM value has been reported for C=C(Cc1ccccc1Cl)C(=O)O [2-(2-chlorobenzyl)acrylic acid, reference compound] ?
59

====

Entries and their measured half-life at 10 μM follow.
# assay comment: Hepatocyte stability assay, mouse cryopreserved hepatocytes
# Format: in vitro ADME
# test settings: cryopreserved hepatocytes; Mouse hepatocytes, 10 μM, 60 min; class symbols; read-out: T½

Known results for compounds:
compound: C=C(Cc1nc(Cc2ccc(Cl)cc2)no1)C(=O)OCC(=O)O
result: > 11 min

compound: C=C(Cc1nc(C2(c3ccc(Br)cc3)CC2)no1)C(=O)OCC(=O)O
result: 5 to 11 min

compound: C=C(Cc1nc(C2(c3ccc(SC(F)(F)F)cc3)CC2)no1)C(=O)OCC(=O)O
result: ≤ 4 min

compound: C=C(Cc1nc(C2(c3ccc(C(F)(F)F)cc3)CC2)no1)C(=O)O[C@@H](CC(=O)O)C(F)(F)F
result: ≤ 4 min

compound: C=C(Cc1nc(C2(c3ccc(C(F)(F)F)cc3)CC2)no1)C(=O)O[C@H](CC(=O)O)C(F)(F)F
result: ≤ 4 min

I am curious: what half-life at 10 μM value has been reported for "C=C(Cc1nc(Cc2ccc(CCCC)cc2)no1)C(=O)OCc1nnn[nH]1" ?
≤ 4 min

Ok, now "C=C(Cc1nc(Cc2ccc(CCCC)cc2)no1)C(=O)OCCc1nnn[nH]1"
≤ 4 min

Ok, now "C=C(Cc1nc(CCCCCCCC)no1)C(=O)O[C@@H](CC(=O)O)C(F)(F)F"
≤ 4 min

Ok, now C=C(Cc1nc(CCCCCCCC)no1)C(=O)OC(C(F)(F)F)C(C)(C)C(=O)O (stereo not drawn)
≤ 4 min
